molecular target: IKKα (Homo sapiens); construct: gene CHUK; recombinant IKKα (Invitrogen), described as a monomer; assay: in vitro kinase assay with recombinant IKKα and IKKtide, UPLC-MS readout; assay type: biochemical
Sequence (O15111 whole entry): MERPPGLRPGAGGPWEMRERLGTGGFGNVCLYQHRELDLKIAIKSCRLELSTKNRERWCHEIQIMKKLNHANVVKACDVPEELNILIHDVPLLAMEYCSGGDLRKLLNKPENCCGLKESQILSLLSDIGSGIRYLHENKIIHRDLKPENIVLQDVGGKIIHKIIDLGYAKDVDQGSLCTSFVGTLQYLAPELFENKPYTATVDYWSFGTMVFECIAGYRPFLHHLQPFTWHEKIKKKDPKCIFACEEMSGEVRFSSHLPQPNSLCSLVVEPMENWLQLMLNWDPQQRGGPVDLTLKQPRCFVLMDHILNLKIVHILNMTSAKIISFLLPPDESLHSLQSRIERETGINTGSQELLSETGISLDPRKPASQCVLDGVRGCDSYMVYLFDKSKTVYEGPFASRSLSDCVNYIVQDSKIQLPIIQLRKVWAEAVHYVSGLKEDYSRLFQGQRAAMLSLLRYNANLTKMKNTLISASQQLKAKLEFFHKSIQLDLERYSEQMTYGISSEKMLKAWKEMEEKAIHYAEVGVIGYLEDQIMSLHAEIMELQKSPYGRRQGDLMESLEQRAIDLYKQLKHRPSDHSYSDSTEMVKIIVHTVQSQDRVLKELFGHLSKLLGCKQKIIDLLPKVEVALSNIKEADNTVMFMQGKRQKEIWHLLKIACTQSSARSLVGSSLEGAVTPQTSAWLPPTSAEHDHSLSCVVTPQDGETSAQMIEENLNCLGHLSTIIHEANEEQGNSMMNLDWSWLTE
pIC50: −log10 of the molar value.
observable: pIC50

{"columns": ["smilesData", "testResult"],
 "data": [
  ["CC(=O)N[C@@H](Cc1ccccc1)C(=O)N[C@@H]1[C@@H](O)[C@H](O)[C@@H](CO)O[C@H]1O", 3.30]
]}

Numbers sourced from paper PMC7915277.
